These entries and their values trace back to PubChem BioAssay (NCI).

- Test system: CAKI-1 renal
- assay notes: NCI tumour cell line growth inhibition, 48 h
// values below are reported TGI

Solved entries (count: 4):
Data request, read-out TGI, for CCOC(=O)c1[nH]cc(C)c1-c1cccn1-c1ccc(Cl)cc1[N+](=O)[O-]
> 100 µM

Data request, read-out TGI, for CC(C)=CC1C(C(=O)Oc2ccccc2C(C)C)C1(C)C (stereo unspecified)
> 100 µM

Data request, read-out TGI, for COC(=O)Nc1nc2ccc(S(=O)(=O)Nc3ccccn3)cc2[nH]1
> 100 µM

Data request, read-out TGI, for NC1N=Nc2ccccc21 (stereo unspecified)
> 100 µM

Continuing:
Data request, read-out TGI, for OCC1OC2c3ccccc3COC2C1OCc1ccccc1 (stereo unspecified)
> 100 µM

Data request, read-out TGI, for Cc1cc2nc3c(C#N)c4c(c(Nc5ccc(F)cc5)n3c2cc1C)CCC4
> 100 µM

Data request, read-out TGI, for COc1cccc(C=O)c1C(=O)c1cc(O)ccc1O
> 57.4 µM

Data request, read-out TGI, for Cc1ccc(-c2nc3nc(-c4ccc(F)cc4)nc(N4CCNCC4)c3o2)cc1
2.92 µM

---

- Tested on: DU-145 prostate
- assay notes: NCI tumour cell line growth inhibition, 48 h
measurement type: TGI

Solved entries (count: 4):
Data request, read-out TGI, for C[C@@H](N)COc1ccc(-c2cnc3ccc(N[C@H](C)c4cccc(F)c4)nn23)cc1
11.4 µM

Data request, read-out TGI, for Cc1ncc([N+](=O)[O-])n1CC[N+](C)([O-])CCCCn1ccnc1[N+](=O)[O-] (centres undefined)
> 100 µM

Data request, read-out TGI, for C/C(CCC(=O)O)=N/Nc1ccc([N+](=O)[O-])cc1
> 100 µM

Data request, read-out TGI, for Clc1cc(-c2ccccc2)nc(Nc2nc3ccccc3[nH]2)n1
> 100 µM

Continuing:
Data request, read-out TGI, for Cc1ccc([P+](Cc2ccccc2)(c2ccccc2)c2ccccc2)cc1
> 100 µM

Data request, read-out TGI, for CC(C)(C)COC(=O)C(C)(C)NC(=O)C(CC(=O)OCc1ccccc1)NC(=O)OCc1ccccc1 (centres undefined)
> 100 µM

Data request, read-out TGI, for O=[N+]([O-])c1ccc(/C=C/c2nc3ccc(Cl)cc3[nH]2)cc1
66.6 µM

Data request, read-out TGI, for O=P(O)(O)c1ccc(-c2ccc(I)cc2)cc1
> 100 µM

Data request, read-out TGI, for CN(c1ccccc1)S(=O)(=O)c1ccc([N+](=O)[O-])cc1
> 100 µM

---

- System: HOP-62 NSCLC
- assay notes: NCI tumour cell line growth inhibition, 48 h
measurement type: TGI (µM)
Please reply with the bare figure in µM and do not write the unit itself.

Solved entries (count: 3):
Missing value: TGI, HOP-62 NSCLC, entry COc1cc(-c2cc3ncccc3c3nc(OCCN(C)C)c4cccnc4c23)cc(OC)c1OC . Fill in?
3

Missing value: TGI, HOP-62 NSCLC, entry COc1ccc(-c2cc(/C=C3\C(=O)Nc4cc(Cl)ccc43)[nH]n2)cc1 . Fill in?
85.9

Missing value: TGI, HOP-62 NSCLC, entry Cc1c(Cc2ccccc2)n(C(C)OCCN(OC(=O)Oc2ccccc2)C(=O)Oc2ccccc2)c(=O)[nH]c1=O (stereo not given) . Fill in?
36.7

Could you now consider this next compound?
Missing value: TGI, HOP-62 NSCLC, entry CC(=O)c1ccccc1NC(=O)C(=O)C(C(=O)c1ccc2ccccc2c1)C1OC(=O)c2ccccc21 (stereo not given) . Fill in?
28.4
